IC50 values by entry
tested target: 5α-reductase (particulate fraction of human benign prostatic hypertrophy tissue) (Homo sapiens)
Construct: homogenates of human benign prostatic hypertrophy tissue as the enzyme source; from tissue; host or cells: human benign prostatic hypertrophy tissue, 40,000×g particulate fraction (nuclei, microsomes, mitochondria)
Sequence (P31213 whole entry): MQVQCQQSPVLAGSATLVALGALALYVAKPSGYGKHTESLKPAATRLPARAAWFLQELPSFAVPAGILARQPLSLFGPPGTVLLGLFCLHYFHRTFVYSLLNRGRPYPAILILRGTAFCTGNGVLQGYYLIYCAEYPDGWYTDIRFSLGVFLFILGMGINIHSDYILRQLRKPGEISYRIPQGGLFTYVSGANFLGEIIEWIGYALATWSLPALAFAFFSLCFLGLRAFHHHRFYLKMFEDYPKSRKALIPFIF
test: Inhibition of prostatic 5α-reductase in vitro
Format: biochemical
experimental parameters: human BPH particulate fraction, 1 μM [4-14C]testosterone, pH 5.0, 30 min, 37° C.; read-out: Inhibition of prostatic 5α-reductase IC50
The reply should be a number in nM, with the unit left off.

[
  {
    "smiles repr": "CC(C)NC(=S)N(C(=O)[C@H]1CC[C@H]2[C@@H]3CC[C@H]4N(C)C(=O)CC[C@]4(C)[C@H]3CC[C@]12C)C(C)C",
    "quantity unit": "nM",
    "IC50": 11
  }
]

Input CN1C(=O)CC[C@]2(C)[C@H]3CC[C@]4(C)[C@@H](C(=O)N(C(=O)NC5CCCCC5)C5CCCCC5)CC[C@H]4[C@@H]3CC[C@@H]12 . Output IC50: 41

Input CC(C)NC(=O)N(C(=O)[C@H]1CC[C@H]2[C@@H]3CC[C@H]4N(C)C(=O)CC[C@]4(C)[C@H]3CC[C@]12C)C(C)C . Output IC50: 55
